# TEST DETAILS: Solubility at pH 7.4
# Format: physicochemical
# COND: buffer
OBSERVATION TYPE: solubility

[[record]]
test_smiles = "COC(=O)N[C@H](C(=O)N[C@@H](Cc1ccc(-c2ccccn2)cc1)C[C@H](O)[C@H](Cc1ccccc1)NC(=O)[C@@H](N1CCN(Cc2ccccc2)C1=O)C(C)(C)C)C(C)(C)C"
recorded_result = "< 0.15 µg/mL"


# ---- query molecule ----
-- ask For `COC(=O)N[C@H](C(=O)N[C@H](Cc1ccc(-c2ccccn2)cc1)C[C@H](O)[C@H](Cc1ccccc1)NC(=O)[C@@H](N1CCN(Cc2cccc(C(C)(C)O)n2)C1=O)C(C)(C)C)C(C)(C)C` , what is its reported solubility?
-- reply 11.3 µg/mL
